Molecular target: T1, human LGR7/RXFP1 receptor (human, UniProt Q9HBX9 1-757)
T1 sequence (looked up): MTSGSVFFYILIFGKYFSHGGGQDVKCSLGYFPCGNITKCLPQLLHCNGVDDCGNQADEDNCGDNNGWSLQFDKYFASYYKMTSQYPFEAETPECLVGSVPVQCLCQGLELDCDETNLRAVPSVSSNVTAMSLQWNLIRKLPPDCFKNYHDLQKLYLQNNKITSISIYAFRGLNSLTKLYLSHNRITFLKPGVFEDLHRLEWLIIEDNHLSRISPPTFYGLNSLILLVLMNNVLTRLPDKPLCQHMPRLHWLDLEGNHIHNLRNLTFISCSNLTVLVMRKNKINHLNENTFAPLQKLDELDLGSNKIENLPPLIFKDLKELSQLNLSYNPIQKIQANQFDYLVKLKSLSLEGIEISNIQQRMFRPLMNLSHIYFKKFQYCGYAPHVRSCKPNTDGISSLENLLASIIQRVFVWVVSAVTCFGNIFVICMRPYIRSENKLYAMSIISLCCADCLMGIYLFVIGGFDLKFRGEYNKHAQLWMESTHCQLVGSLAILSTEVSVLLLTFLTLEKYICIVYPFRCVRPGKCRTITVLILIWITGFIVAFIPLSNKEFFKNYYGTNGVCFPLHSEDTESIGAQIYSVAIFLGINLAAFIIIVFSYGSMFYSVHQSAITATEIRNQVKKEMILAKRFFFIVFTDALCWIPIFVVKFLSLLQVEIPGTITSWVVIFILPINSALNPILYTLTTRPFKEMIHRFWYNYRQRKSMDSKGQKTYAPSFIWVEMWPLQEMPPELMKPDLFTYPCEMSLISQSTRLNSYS
Test: cell-based or functional assay
parameter-measured: EC50 (M), CRE-luciferase reporter in CHO-CRE-LGR7 cells
Answer with a number only, understood to be in M.

In the examples that follow, each entry is paired with its recorded EC50 (M), CRE-luciferase reporter in CHO-CRE-LGR7 cells.
INSERT INTO measurements (binder, numeric_result) VALUES
  ('scR11 (ligand) QLYSALANKCCHVGCTKRSLARFCGGGSGCGGSGSWMEEVIKLCGRELVRAQIAICGMSTWS', '2.5e-08'),
  ('human Relaxin 3 (ligand) chain 1: DVLAGLSSSCCKWGCSKSEISSLC chain 2: RAAPYGVRLCGREFIRAVIFTCGGSRW', '2.3e-09'),
  ('scR17 (ligand) EQKLISEEDLDVLAGLSSSCCKWGCSKSEISSLCGGGSGGGSGSWMEEVIKLCGRELVRAQIAICGMSTWS', '1.3e-08'),
  ('human Relaxin 2 (ligand) chain 1: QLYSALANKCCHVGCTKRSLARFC chain 2: SWMEEVIKLCGRELVRAQIAICGMSTWS', '2.6e-11');

Task: Need EC50 (M), CRE-luciferase reporter in CHO-CRE-LGR7 cells of scR7 (ligand) EQKLISEEDLQLYSALANKCCHVGCTKRSLARFCGGGSGGSWMEEVIKLCGRELVRAQIAICGMSTWS , thanks.
Result: 5.3e-08
